assay: Novel Modifiers of Survival Motor Neuron (SMN) Protein: Gene Identification via Genome-wide siRNA Screen; conditions: HEK293T SMN2-luciferase reporter, siRNA knockdown, 72 h; actives lie on both sides;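 note: luminescence tracks full-length SMN protein made from the SMN2 reporter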
Hit rate of the full screen: of about 31,000 sequences, about 1,400 (4.5%) were called active. This is one part of a sample in which actives are shown more often than they occur.
Recorded median seed-adjusted z-score for the following sequences
When you answer, write just the number.

{"sequenceString": "GGACUACGGAGUUCGAGAATT against MGC29506", "median seed-adjusted z-score": 0}
{"sequenceString": "GCGGCUCCAUUUACCAGAATT against VDAC1", "median seed-adjusted z-score": 0.133}
{"sequenceString": "GCAUUGAAACGAAUGGGAATT against UBA5", "median seed-adjusted z-score": -0.105}
{"sequenceString": "CAAGCAUAUUAAUGAGGUUTT against DYRK1A", "median seed-adjusted z-score": -1.3}

In: Find the measured median seed-adjusted z-score of GGGCUUUGAUAGGAAUGCATT against UBE2K and report it.
Out: 0.497

In: Input CCAGACCUCAUGUCACAGATT against ZNF777 , output reported median seed-adjusted z-score.
Out: 0.128

In: Indicate the recorded median seed-adjusted z-score value for this sequence: CACCCACACCGGAUUGAAATT against BAG5
Out: -0.0153

In: Give the measured median seed-adjusted z-score for CGAGUUUGAUGAAAGAGGATT against NT5E
Out: 0.199

In: Give me measured median seed-adjusted z-score, please, for this sequence: GCCUGGGUCAAAUACAGUATT against KLHL20
Out: -0.0828

In: Kindly indicate its recorded median seed-adjusted z-score. Item: GCAAGUCCCGCAAAAAGAATT against NEIL1
Out: -0.168
